Values were extracted from patent US20110105397A1.

Target: T1, human corticotrophin releasing hormone receptor type 2 (CRHR2) (human, UniProt Q13324 1-411)
T1 sequence (looked up): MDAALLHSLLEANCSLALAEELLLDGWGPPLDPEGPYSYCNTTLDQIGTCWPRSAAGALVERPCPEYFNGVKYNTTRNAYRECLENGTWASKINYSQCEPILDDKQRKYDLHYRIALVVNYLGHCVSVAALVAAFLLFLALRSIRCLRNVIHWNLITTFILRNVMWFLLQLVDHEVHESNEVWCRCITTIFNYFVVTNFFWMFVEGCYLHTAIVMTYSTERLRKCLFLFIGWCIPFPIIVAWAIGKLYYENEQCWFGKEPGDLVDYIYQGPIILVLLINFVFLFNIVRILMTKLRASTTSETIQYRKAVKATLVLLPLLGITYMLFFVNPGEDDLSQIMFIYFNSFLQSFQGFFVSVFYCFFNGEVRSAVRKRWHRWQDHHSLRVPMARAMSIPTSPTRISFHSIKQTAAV
Test: cell-based or functional assay
Where no end group is shown, it is not given here.
Listing of recorded pA50 by entry.

For orientation, consider the following solved cases.
binder="TKFTLSLDVPTNIMNLLFNIAKAKNCRAQAAANAHLMAQI-NH2 [Cys-variant stresscopin-like peptide SEQ ID NO: 27]" reported_metric=pA50 meas_value="8.76 -log10(M)"
binder="TKFTLSLDVPTNIMCLLFNIAKAKNLRAQAAANAHLMAQI-NH2 [Cys-variant stresscopin-like peptide SEQ ID NO: 16]" reported_metric=pA50 meas_value="8.93 -log10(M)"
binder="TKFTLSLDVPTNCMNLLFNIAKAKNLRAQAAANAHLMAQI (NES-PEG (about 20 kDa) on Cys 13; C-terminal amide (-NH2)) [Pegylated Cys-variant stresscopin-like peptide with NES linker and PEG about 20 kDa SEQ ID NO: 67]" reported_metric=pA50 meas_value="~6.35 -log10(M)"
binder="TKFTLSLDVPTNCMNLLFNIAKAKNLRAQAAANAHLMAQI-NH2 [Cys-variant stresscopin-like peptide SEQ ID NO: 14]" reported_metric=pA50 meas_value="~7.34 -log10(M)"
binder="TKFTLSLDVPTNIMNLLFNIAKAKNLRAQAAANACLMAQI (NES-PEG (about 20 kDa) on Cys 35; C-terminal amide (-NH2)) [Pegylated Cys-variant stresscopin-like peptide with NES linker and PEG about 20 kDa SEQ ID NO: 89]" reported_metric=pA50 meas_value="8.48 -log10(M)"

Below: the item to evaluate.
# query: pA50 of entry TKFTLSLDVPTNIMNLLFNIAKCKNLRAQAAANAHLMAQI (NES-PEG (about 20 kDa) on Cys 23; C-terminal amide (-NH2)) [Pegylated Cys-variant stresscopin-like peptide with NES linker and PEG about 20 kDa SEQ ID NO: 77]
8.27 -log10(M)
